- MEASUREMENT DESCRIPTION: Intrinsic clearance in mouse liver microsomes by LC-MS/MS analysis
- Type: ADME, Microsome
- EXPERIMENTAL CONDITIONS: read-out: CLH

- CPD SMILES: "Cc1cc(=O)n(-c2ccc(N3CCC(Cc4ccc(Cl)c(F)c4)CC3)c(Cl)c2)c(C)n1"
  CLint scaled [mL/min/kg]: 77

----------
- MEASUREMENT DESCRIPTION: Cmax in Sprague-Dawley rat model of bleomycin-induced pulmonary fibrosis at 2 mg/kg, iv by LC-MS/MS analysis
- Assay type: ADME, organism-based
- Parameters: dose 2 mg/kg, route iv
- EXPERIMENTAL CONDITIONS: in vivo

- CPD SMILES: "Cc1ccc(=O)n(-c2ccccc2)c1"
  Cmax, ng/mL: 1010

----------
- MEASUREMENT DESCRIPTION: Intrinsic clearance in monkey liver microsomes by LC-MS/MS analysis
- Assay type: ADME, Macaca mulatta, Microsome
- EXPERIMENTAL CONDITIONS: rhesus monkey, read-out: CLH
QUANTITY NAME: CLint scaled (mL/min/kg)

- CPD SMILES: "Cc1cc(=O)n(-c2ccc(N3CCC(Cc4ccc(Cl)c(F)c4)CC3)c(Cl)c2)c(C)n1"
  QUANTITY NAME: "CLint scaled"
  OBSERVED RESULT: 48.6

----------
- MEASUREMENT DESCRIPTION: Half life in dog at 1 mg/kg, iv by LC-MS/MS analysis
- Assay type: ADME, organism-based, Canis lupus familiaris
- EXPERIMENTAL CONDITIONS: in vivo

- CPD SMILES: "Cc1cc(=O)n(-c2ccc(N3CCC(Cc4ccc(Cl)c(F)c4)CC3)c(Cl)c2)c(C)n1"
  half-life / h: 11

----------
- MEASUREMENT DESCRIPTION: Tmax in Sprague-Dawley rat model of bleomycin-induced pulmonary fibrosis at 10 mg/kg, po by LC-MS/MS analysis
- Type: ADME, organism-based
- EXPERIMENTAL CONDITIONS: in vivo

- CPD SMILES: "Cc1ccc(=O)n(-c2ccccc2)c1"
  Tmax [min]: 18

----------
- MEASUREMENT DESCRIPTION: Clearance in Sprague-Dawley rat model of bleomycin-induced pulmonary fibrosis at 2 mg/kg, iv by LC-MS/MS analysis
- Type: ADME, organism-based
- EXPERIMENTAL CONDITIONS: in vivo
QUANTITY NAME: clearance (mL/min/kg)

- COMPOUND: "Cc1cc(=O)n(-c2ccc(N3CCC(Cc4ccc(Cl)c(F)c4)CC3)c(Cl)c2)c(C)n1"
  MEASURE UNIT: "mL/min/kg"
  OBSERVED RESULT: 4.33
- COMPOUND: "Cc1cc(=O)n(-c2ccc(N3CCC(COc4cccc(F)c4)CC3)c(Cl)c2)c(C)n1"
  MEASURE UNIT: "mL/min/kg"
  OBSERVED RESULT: 10.8
- COMPOUND: "Cc1ccc(=O)n(-c2ccccc2)c1 [PIRFENIDONE]"
  MEASURE UNIT: "mL/min/kg"
  OBSERVED RESULT: 53.3
- COMPOUND: "Cc1cc(=O)n(-c2ccc(N3CCC(Cc4cccc(Cl)c4)CC3)c(Cl)c2)c(C)n1"
  MEASURE UNIT: "mL/min/kg"
  OBSERVED RESULT: 15.8
- COMPOUND: "Cc1cc(=O)n(-c2ccc(N3CCC(Cc4cccc5ccccc45)CC3)c(F)c2)c(C)n1"
  MEASURE UNIT: "mL/min/kg"
  OBSERVED RESULT: 29.8
- COMPOUND: "Cc1cc(=O)n(-c2ccc(N3CCC(Cc4cc(F)c(F)c(F)c4)CC3)c(Cl)c2)c(C)n1"
  MEASURE UNIT: "mL/min/kg"
  OBSERVED RESULT: 13.8
- COMPOUND: "Cc1cc(=O)n(-c2ccc(N3CCC(Cc4cccc(C(F)(F)F)c4)CC3)c(Cl)c2)c(C)n1"
  MEASURE UNIT: "mL/min/kg"
  OBSERVED RESULT: 10.3

----------
- MEASUREMENT DESCRIPTION: AUClast in Sprague-Dawley rat model of bleomycin-induced pulmonary fibrosis at 10 mg/kg, po by LC-MS/MS analysis
- Format: ADME, organism-based
- Design: time 0 - last, dose 10 mg/kg, route po
- EXPERIMENTAL CONDITIONS: in vivo

- CPD SMILES: "Cc1ccc(=O)n(-c2ccccc2)c1"
  AUC(0-t): "3460 ng·h/mL"

----------
- MEASUREMENT DESCRIPTION: Volume of distribution at steady state in Sprague-Dawley rat model of bleomycin-induced pulmonary fibrosis at 2 mg/kg, iv by LC-MS/MS analysis
- Type: ADME, organism-based
- EXPERIMENTAL CONDITIONS: in vivo, read-out: Vdss

- CPD SMILES: "Cc1cc(=O)n(-c2ccc(N3CCC(Cc4ccc(Cl)c(F)c4)CC3)c(Cl)c2)c(C)n1"
  Vd: "8.2 L/kg"

----------
- MEASUREMENT DESCRIPTION: Oral bioavailability in Sprague-Dawley rat model of bleomycin-induced pulmonary fibrosis at 10 mg/kg by LC-MS/MS analysis
- Assay type: ADME, organism-based
- EXPERIMENTAL CONDITIONS: in vivo

- CPD SMILES: "Cc1ccc(=O)n(-c2ccccc2)c1"
  bioavailability [%]: 107

----------
- MEASUREMENT DESCRIPTION: Tmax in Sprague-Dawley rat model of bleomycin-induced pulmonary fibrosis at 5 mg/kg, po by LC-MS/MS analysis
- Type: ADME, organism-based
- EXPERIMENTAL CONDITIONS: in vivo
QUANTITY NAME: Tmax (h)

- CPD SMILES: "Cc1cc(=O)n(-c2ccc(N3CCOCC3)c(F)c2)c(C)n1"
  QUANTITY NAME: "Tmax"
  MEASURE UNIT: "h"
  OBSERVED RESULT: 0.5
- CPD SMILES: "Cc1cc(=O)n(-c2ccc(N3CCC(Cc4ccc(Cl)c(F)c4)CC3)c(Cl)c2)c(C)n1"
  QUANTITY NAME: "Tmax"
  MEASURE UNIT: "h"
  OBSERVED RESULT: 1.7

----------
- MEASUREMENT DESCRIPTION: Cmax in dog at 5 mg/kg, po by LC-MS/MS analysis
- Format: ADME, organism-based, Canis lupus familiaris
- Set-up: dose 5 mg/kg, route po
- EXPERIMENTAL CONDITIONS: in vivo

- CPD SMILES: "Cc1cc(=O)n(-c2ccc(N3CCC(Cc4ccc(Cl)c(F)c4)CC3)c(Cl)c2)c(C)n1"
  MEASURE UNIT: "ng/mL"
  Cmax: 628

----------
- MEASUREMENT DESCRIPTION: Intrinsic clearance in human liver microsomes by LC-MS/MS analysis
- Assay type: ADME, Microsome
- EXPERIMENTAL CONDITIONS: read-out: CLH
QUANTITY NAME: CLint scaled

- CPD SMILES: "Cc1cc(=O)n(-c2ccc(N3CCC(Cc4ccc(Cl)c(F)c4)CC3)c(Cl)c2)c(C)n1"
  OBSERVED RESULT: "16.7 mL/min/kg"

----------
- TESTED ON: Cytochrome P450 2C9 (Homo sapiens, UniProt P11712)
- Sequence (P11712 whole entry): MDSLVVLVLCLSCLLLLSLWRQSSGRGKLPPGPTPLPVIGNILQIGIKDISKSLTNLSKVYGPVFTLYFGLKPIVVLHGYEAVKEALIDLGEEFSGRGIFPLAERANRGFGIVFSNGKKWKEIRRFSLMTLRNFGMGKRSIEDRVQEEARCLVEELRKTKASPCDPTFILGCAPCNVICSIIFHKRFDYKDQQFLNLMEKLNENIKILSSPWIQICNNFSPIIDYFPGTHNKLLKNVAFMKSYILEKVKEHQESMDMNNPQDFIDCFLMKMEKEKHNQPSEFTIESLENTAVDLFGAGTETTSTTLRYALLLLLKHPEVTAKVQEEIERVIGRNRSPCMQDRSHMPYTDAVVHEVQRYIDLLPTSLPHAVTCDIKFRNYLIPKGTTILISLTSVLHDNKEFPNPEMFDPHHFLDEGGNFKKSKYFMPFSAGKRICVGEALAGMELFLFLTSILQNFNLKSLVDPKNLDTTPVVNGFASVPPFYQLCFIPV
pIC50: −log10 of the molar value.
QUANTITY NAME: pIC50

- CPD SMILES: "Cc1cc(=O)n(-c2ccc(N3CCC(Cc4ccc(Cl)c(F)c4)CC3)c(Cl)c2)c(C)n1"
  QUANTITY NAME: "pIC50"
  OBSERVED RESULT: "< 5.00"

----------
- TESTED ON: Voltage-gated inwardly rectifying potassium channel KCNH2 (Homo sapiens)
- Sequence (Q12809 whole entry): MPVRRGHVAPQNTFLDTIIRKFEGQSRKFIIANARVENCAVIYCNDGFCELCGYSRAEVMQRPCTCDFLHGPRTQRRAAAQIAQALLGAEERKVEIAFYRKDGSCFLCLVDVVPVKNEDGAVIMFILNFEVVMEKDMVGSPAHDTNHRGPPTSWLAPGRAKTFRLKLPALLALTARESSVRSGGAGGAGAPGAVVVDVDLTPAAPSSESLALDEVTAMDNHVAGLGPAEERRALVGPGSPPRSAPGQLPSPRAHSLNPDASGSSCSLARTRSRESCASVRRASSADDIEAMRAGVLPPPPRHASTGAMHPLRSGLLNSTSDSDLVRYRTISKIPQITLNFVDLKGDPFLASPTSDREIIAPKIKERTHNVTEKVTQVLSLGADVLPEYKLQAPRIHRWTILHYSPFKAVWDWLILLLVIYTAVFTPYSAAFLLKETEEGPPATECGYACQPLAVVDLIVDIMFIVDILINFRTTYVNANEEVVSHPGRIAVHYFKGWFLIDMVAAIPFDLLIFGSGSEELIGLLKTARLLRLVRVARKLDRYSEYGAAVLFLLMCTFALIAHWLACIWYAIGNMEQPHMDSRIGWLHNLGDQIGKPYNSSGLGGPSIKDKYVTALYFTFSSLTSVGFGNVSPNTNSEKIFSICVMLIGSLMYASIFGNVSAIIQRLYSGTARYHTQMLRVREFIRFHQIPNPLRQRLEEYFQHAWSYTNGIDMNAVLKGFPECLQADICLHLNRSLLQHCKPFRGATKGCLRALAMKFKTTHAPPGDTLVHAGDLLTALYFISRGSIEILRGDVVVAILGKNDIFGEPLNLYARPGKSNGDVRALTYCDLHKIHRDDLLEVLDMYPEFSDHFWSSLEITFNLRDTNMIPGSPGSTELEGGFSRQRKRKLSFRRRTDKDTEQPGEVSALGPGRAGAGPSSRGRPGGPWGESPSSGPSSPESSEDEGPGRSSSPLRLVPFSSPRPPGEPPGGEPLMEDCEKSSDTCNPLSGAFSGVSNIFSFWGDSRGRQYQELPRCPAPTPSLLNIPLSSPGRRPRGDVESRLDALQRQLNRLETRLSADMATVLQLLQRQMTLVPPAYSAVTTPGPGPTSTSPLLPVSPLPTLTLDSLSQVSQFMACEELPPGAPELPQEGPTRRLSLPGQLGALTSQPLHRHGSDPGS
- MEASUREMENT DESCRIPTION: Inhibition of human ERG stably expressed in CHO cells by automated Qpatch clamp method

- CPD SMILES: "Cc1cc(=O)n(-c2ccc(N3CCC(Cc4ccc(Cl)c(F)c4)CC3)c(Cl)c2)c(C)n1"
  IC50: "> 30 µM"

----------
- MEASUREMENT DESCRIPTION: Clearance in cynomolgus monkey at 1 mg/kg, iv by LC-MS/MS analysis
- Type: ADME, organism-based, Macaca fascicularis
- EXPERIMENTAL CONDITIONS: in vivo

- CPD SMILES: "Cc1cc(=O)n(-c2ccc(N3CCC(Cc4ccc(Cl)c(F)c4)CC3)c(Cl)c2)c(C)n1"
  clearance, mL/min/kg: 3.33

----------
- TESTED ON: Cytochrome P450 1A2 (Homo sapiens, UniProt P05177)
- Sequence (P05177 whole entry): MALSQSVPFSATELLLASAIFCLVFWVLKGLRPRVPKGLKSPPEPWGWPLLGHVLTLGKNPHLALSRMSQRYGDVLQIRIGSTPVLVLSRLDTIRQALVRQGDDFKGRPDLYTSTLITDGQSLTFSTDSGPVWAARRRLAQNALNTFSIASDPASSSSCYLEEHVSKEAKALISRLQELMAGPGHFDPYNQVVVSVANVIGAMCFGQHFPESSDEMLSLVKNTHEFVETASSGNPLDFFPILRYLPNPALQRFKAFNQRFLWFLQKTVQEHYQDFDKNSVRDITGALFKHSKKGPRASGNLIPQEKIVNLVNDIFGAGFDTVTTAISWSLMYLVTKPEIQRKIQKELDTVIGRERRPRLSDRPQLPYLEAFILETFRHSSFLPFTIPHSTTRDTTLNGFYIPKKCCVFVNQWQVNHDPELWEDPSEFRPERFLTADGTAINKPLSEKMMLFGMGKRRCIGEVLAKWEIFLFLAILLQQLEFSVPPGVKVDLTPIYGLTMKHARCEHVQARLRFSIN
pIC50: −log10 of the molar value.
QUANTITY NAME: pIC50

- CPD SMILES: "Cc1cc(=O)n(-c2ccc(N3CCC(Cc4ccc(Cl)c(F)c4)CC3)c(Cl)c2)c(C)n1"
  QUANTITY NAME: "pIC50"
  OBSERVED RESULT: "< 5.00"
